- method-notes: Plasma concentration in dual transgenic mouse expressing human CETP/ApoB-100 at 3 mg/kg, po measured at 2 hrs post dose
- Assay type: ADME, organism-based
observation-type: concentration at 2 h (nM)
A number alone suffices; assume nM.

Given the compound CC(C)Oc1cc([C@@](Cc2ccccc2)(NC[C@H](O)CC(F)(F)F)c2cc(F)cc(OC(F)(F)C(F)F)c2)ccc1F , what is its reported concentration at 2 h?
380

====

# key: entry, value: remaining at 10 min, 3 µM
- method-notes: Metabolic stability in human liver microsomes assessed as compound remaining at 3 uM after 10 mins by UV absorbance method
- Assay type: ADME
- test-context: read-out: Stability
State the result as a value with its unit after it.

Check out these entries, answers already filled in.
[
  {
    "compound": "O[C@H](CN[C@@](Cc1ccccc1)(c1cc(F)cc(C(F)(F)F)c1)c1ccc(Cl)cn1)C(F)(F)F",
    "observation-type": "remaining at 10 min, 3 µM",
    "meas-value": "100%"
  },
  {
    "compound": "CC(C)Oc1cc([C@@](Cc2ccccc2)(NC[C@H](O)CC(F)(F)F)c2cc(F)cc(OC(F)(F)C(F)F)c2)ccc1F",
    "observation-type": "remaining at 10 min, 3 µM",
    "meas-value": "83%"
  }
]

Please look up its remaining at 10 min, 3 µM: OC(CN[C@@](Cc1ccccc1)(c1cc(F)cc(C(F)(F)F)c1)c1ccc(Cl)cn1)CC(F)(F)F (some centres undefined)
93%

Another compound to look at: O[C@H](CN[C@@](Cc1ccccc1)(c1cc(F)cc(OC(F)(F)C(F)F)c1)c1ccc(Cl)cn1)C(F)(F)F
100%

====

- method-notes: AUC (0 to 8 hrs) in dual transgenic mouse plasma expressing human CETP/ApoB-100 at 3 mg/kg, po
- Assay type: ADME, organism-based
- Set-up: dose 3 mg/kg, time < 8 hr, route oral
observation-type: AUC(0-t) at 8 h (µM·h)
Just the number in µM·h, nothing appended.

Would you kindly share the measured AUC(0-t) at 8 h for CC(C)Oc1cc([C@@](Cc2ccccc2)(NC[C@H](O)CC(F)(F)F)c2cc(F)cc(OC(F)(F)C(F)F)c2)ccc1F ?
1.04

====

- test-system: Cholesteryl ester transfer protein (Homo sapiens)
- method-notes: Inhibition of human recombinant CETP assessed as reduction in [3H]cholesteryl ester transfer from [3H]CE-HDL to biotinylated LDL by scintillation proximity assay
observation-type: IC50 (nM)
Note: unit nM is implicit; provide only the numeric part.

Guide cases for IC50, answers given:
[
  {
    "compound": "O[C@H](CN[C@@](Cc1ccccc1)(c1cc(F)cc(C(F)(F)F)c1)c1ccc(Cl)cn1)C(F)(F)F",
    "units-label": "nM",
    "meas-value": 22
  },
  {
    "compound": "O[C@H](CN[C@@](Cc1ccccc1)(c1cc(F)cc(OC(F)(F)C(F)F)c1)c1ccc(Cl)cn1)C(F)(F)F",
    "units-label": "nM",
    "meas-value": 14
  },
  {
    "compound": "OC(CN[C@@](Cc1ccccc1)(c1cc(F)cc(OC(F)(F)C(F)F)c1)c1ccc(Cl)cn1)CC(F)(F)F (stereo partly drawn)",
    "units-label": "nM",
    "meas-value": 1.5
  },
  {
    "compound": "C[C@@H](O)CN[C@@](Cc1ccccc1)(c1cc(F)cc(C(F)(F)F)c1)c1ccc(Cl)cn1",
    "units-label": "nM",
    "meas-value": 520
  },
  {
    "compound": "CC(C)Oc1cc([C@@](Cc2ccccc2)(NC[C@H](O)CC(F)(F)F)c2cc(F)cc(OC(F)(F)C(F)F)c2)ccc1F",
    "units-label": "nM",
    "meas-value": 1.3
  },
  {
    "compound": "CC(C)Oc1cc([C@@](Cc2ccccc2)(NC[C@@H](O)C(F)(F)F)c2cc(F)cc(OC(F)(F)C(F)F)c2)ccc1F",
    "units-label": "nM",
    "meas-value": 1.8
  },
  {
    "compound": "O=C(N[C@@](Cc1ccccc1)(c1cc(F)cc(C(F)(F)F)c1)c1ccc(Cl)cn1)c1ccc(F)c(C(F)(F)F)c1",
    "units-label": "nM",
    "meas-value": 52
  }
]

# context switch: different compound, same IC50
Checklist item: IC50 tested on Cholesteryl ester transfer protein (Homo sapiens), entry OC(CN[C@@](Cc1ccccc1)(c1cc(F)cc(C(F)(F)F)c1)c1ccc(Cl)cn1)CC(F)(F)F (stereo partly drawn) , value?
9

====

- method-notes: Plasma concentration in dual transgenic mouse expressing human CETP/ApoB-100 at 30 mg/kg, po measured at 4 hrs post dose
- Type: ADME, organism-based
observation-type: concentration at 4 h (nM)
Write down the numeric answer in nM and omit the unit.

[
  {
    "compound": "OC(CN[C@@](Cc1ccccc1)(c1cc(F)cc(OC(F)(F)C(F)F)c1)c1ccc(Cl)cn1)CC(F)(F)F (some centres not stated)",
    "meas-value": 2600
  }
]

Here's the next entry for you.
concentration at 4 h for O[C@H](CN[C@@](Cc1ccccc1)(c1cc(F)cc(OC(F)(F)C(F)F)c1)c1ccc(Cl)cn1)C(F)(F)F ?
3000

====

- method-notes: Plasma concentration in dual transgenic mouse expressing human CETP/ApoB-100 at 3 mg/kg, po measured at 4 hrs post dose
- Assay type: ADME, organism-based
observation-type: concentration at 4 h (nM)
Expressed in nM, but write only the number.

// concentration at 4 h lookup, key: CC(C)Oc1cc([C@@](Cc2ccccc2)(NC[C@H](O)CC(F)(F)F)c2cc(F)cc(OC(F)(F)C(F)F)c2)ccc1F
89

====

- test-system: hERG (KCNH2) (Homo sapiens)
- Sequence (Q12809 whole entry): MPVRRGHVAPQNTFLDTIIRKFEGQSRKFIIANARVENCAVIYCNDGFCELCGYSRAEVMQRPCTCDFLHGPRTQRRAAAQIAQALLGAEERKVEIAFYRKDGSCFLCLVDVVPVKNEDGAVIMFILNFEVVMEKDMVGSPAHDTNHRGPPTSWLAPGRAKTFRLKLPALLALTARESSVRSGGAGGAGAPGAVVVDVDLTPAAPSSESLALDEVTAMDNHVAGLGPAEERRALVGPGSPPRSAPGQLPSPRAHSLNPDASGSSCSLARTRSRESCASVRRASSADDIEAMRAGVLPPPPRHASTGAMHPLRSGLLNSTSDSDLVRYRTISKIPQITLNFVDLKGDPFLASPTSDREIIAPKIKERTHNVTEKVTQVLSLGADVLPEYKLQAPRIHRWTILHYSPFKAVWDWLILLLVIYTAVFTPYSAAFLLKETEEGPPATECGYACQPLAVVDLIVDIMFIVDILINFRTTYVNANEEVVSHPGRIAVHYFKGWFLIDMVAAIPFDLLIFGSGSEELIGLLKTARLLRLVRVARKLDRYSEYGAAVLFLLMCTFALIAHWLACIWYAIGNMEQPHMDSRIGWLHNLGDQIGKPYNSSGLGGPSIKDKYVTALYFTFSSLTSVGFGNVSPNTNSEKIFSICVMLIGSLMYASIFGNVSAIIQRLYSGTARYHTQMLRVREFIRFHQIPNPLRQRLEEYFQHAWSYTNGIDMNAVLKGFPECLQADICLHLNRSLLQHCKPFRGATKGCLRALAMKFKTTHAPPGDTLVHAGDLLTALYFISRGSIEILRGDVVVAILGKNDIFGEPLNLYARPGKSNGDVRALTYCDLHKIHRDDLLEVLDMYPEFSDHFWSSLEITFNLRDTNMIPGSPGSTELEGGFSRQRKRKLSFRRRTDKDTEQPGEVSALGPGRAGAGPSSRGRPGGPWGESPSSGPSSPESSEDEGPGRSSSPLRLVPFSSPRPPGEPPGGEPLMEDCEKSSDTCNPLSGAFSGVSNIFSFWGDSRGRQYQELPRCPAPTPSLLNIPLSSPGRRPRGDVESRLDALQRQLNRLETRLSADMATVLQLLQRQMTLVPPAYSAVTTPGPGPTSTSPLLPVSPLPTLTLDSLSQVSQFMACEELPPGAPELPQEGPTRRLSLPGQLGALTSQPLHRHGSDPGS
- method-notes: Inhibition of recombinant human ERG expressed in HEK293 cells assessed as inhibition of peak tail current at 3 uM by patch clamp assay relative to control
- Format: cell-based
- test-context: HEK293 cells expressing recombinant human ERG
observation-type: inhibition at 3 µM (%)
Answer with a number only, understood to be in %.

Please look up its inhibition at 3 µM: O[C@H](CN[C@@](Cc1ccccc1)(c1cc(F)cc(OC(F)(F)C(F)F)c1)c1ccc(Cl)cn1)C(F)(F)F
87

====

- method-notes: Plasma concentration in dual transgenic mouse expressing human CETP/ApoB-100 at 10 mg/kg, po measured at 2 hrs post dose
- Assay type: ADME, organism-based
observation-type: concentration at 2 h (nM)
I only need the number, in nM, no unit after it.

Endpoint output: concentration at 2 h of CC(C)Oc1cc([C@@](Cc2ccccc2)(NC[C@H](O)CC(F)(F)F)c2cc(F)cc(OC(F)(F)C(F)F)c2)ccc1F . Value?
960

====

- method-notes: Plasma concentration in dual transgenic mouse expressing human CETP/ApoB-100 at 3 mg/kg, po measured at 8 hrs post dose
- Assay type: ADME, organism-based
observation-type: concentration at 8 h
The reply must contain the numeric value and, after it, the unit.

Query: concentration at 8 h; subject: CC(C)Oc1cc([C@@](Cc2ccccc2)(NC[C@H](O)CC(F)(F)F)c2cc(F)cc(OC(F)(F)C(F)F)c2)ccc1F
45 nM

====

- test-system: Cholesteryl ester transfer protein (Homo sapiens)
- Sequence (P11597 whole entry): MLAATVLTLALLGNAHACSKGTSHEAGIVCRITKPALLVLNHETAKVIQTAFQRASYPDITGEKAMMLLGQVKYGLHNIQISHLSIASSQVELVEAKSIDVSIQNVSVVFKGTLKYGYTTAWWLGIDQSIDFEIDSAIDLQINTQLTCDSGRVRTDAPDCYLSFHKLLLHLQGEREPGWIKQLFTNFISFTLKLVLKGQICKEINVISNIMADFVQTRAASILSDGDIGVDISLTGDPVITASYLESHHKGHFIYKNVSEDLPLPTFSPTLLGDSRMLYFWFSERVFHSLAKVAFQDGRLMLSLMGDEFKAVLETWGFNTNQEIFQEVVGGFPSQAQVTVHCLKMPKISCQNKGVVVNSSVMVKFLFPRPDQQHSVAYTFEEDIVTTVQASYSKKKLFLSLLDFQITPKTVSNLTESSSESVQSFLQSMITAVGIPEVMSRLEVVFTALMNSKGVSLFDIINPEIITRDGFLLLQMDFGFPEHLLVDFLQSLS
- method-notes: Inhibition of human recombinant CETP assessed as reduction in [3H]cholesteryl ester transfer from [3H]CE-HDL to biotinylated LDL by scintillation proximity assay
observation-type: pIC50
Note: pIC50 values are expressed as the negative base-10 logarithm of concentration in M.

Name the recorded pIC50 for O=C(CN[C@@](Cc1ccccc1)(c1cc(F)cc(C(F)(F)F)c1)c1ccc(Cl)cn1)CC(F)(F)F .
6.19

Same question for OC[C@H](O)CN[C@@](Cc1ccccc1)(c1cc(F)cc(C(F)(F)F)c1)c1ccc(Cl)cn1 please.
5.07
